This collection of values is drawn from patent US20260159486A1.

# SUBJECT OF TEST: recombinant human CLK3 (Homo sapiens, UniProt P49761)
# Sequence (P49761 whole entry): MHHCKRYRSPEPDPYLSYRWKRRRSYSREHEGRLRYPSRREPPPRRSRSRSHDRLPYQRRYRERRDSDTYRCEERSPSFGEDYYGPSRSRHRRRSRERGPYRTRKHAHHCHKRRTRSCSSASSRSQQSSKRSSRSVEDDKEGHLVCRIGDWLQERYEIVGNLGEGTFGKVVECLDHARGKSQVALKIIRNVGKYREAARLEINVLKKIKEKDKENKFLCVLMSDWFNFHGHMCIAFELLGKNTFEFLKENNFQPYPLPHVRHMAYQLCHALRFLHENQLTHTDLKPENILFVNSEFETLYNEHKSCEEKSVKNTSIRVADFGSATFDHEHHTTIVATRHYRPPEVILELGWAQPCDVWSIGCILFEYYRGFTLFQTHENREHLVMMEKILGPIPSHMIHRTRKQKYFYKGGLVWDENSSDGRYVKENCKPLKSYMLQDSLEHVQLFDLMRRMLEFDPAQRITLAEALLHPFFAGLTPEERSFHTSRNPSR
# EXPERIMENT: CLK3 kinase assay (LANCE Ultra)
# PROTOCOL CONDITIONS: CLK3 0.5 nM, ATP 300 μM, 3 hours at 30° C.
pIC50: −log10 of the molar value.
Measured pIC50 by item

| COMPOUND | pIC50 |
| --- | --- |
| CC1(C)Cc2c(ccc(O[C@H]3CC[C@@H](N4CCOCC4)CC3)c2NC[C@@H]2CNC(=O)O2)-c2ncnc(N)c21 | > 7.52 |

Just so you know, measured pIC50 for CC1(C)Cc2c(ccc(O[C@H]3CC[C@H](N)CC3)c2N2CCC(O)C2)-c2ncnc(N)c21 (single isomer, unassigned) [Example 15] came out at > 7.52

Just so you know, measured pIC50 for `COCCCc1c(OC)ccc2c1CC(C)(C)c1c(N)ncnc1-2` came out at 6.00 to 7.00

Just so you know, measured pIC50 for CC1(C)Cc2c(ccc(Br)c2N2CCC(C#N)C2)-c2ncnc(N)c21 (stereo not drawn) came out at 6.00 to 7.00

Just so you know, measured pIC50 for `CC1(C)Cc2c(ccc(O[C@H]3CC[C@H](N)CC3)c2NC(=O)CO)-c2ncnc(N)c21` came out at 6.00 to 7.00

Just so you know, measured pIC50 for `CN(CCO)c1c(O[C@H]2CC[C@@H](N)CC2)ccc2c1CC1(CCCC1)c1c(N)ncnc1-2` came out at > 7.52

Just so you know, measured pIC50 for `CC1(C)Cc2c(ccc(O[C@H]3CC[C@H](N)CC3)c2C(=O)NCC#N)-c2ncnc(N)c21` came out at > 7.52

Just so you know, measured pIC50 for `CC1(C)Cc2c(ccc(O[C@H]3CC[C@H](N)CC3)c2N2CC=CC2=O)-c2ncnc(N)c21` came out at 6.00 to 7.00

Just so you know, measured pIC50 for `CN(CCS(C)(=O)=O)c1c(O[C@H]2CC[C@@H](N)CC2)ccc2c1CC(C)(C)c1c(N)ncnc1-2` came out at > 7.52

* * *

# SUBJECT OF TEST: recombinant human CLK3 (Homo sapiens, UniProt P49761)
# EXPERIMENT: CLK3 kinase assay (LANCE Ultra)
# PROTOCOL CONDITIONS: CLK3 0.5 nM, ATP 300 μM, 3 hours at 30° C.
Measured IC50 by item

# example entries with known answers
| SMILES REPRESENTATION | IC50 |
| --- | --- |
| COCCN(C)c1c(O[C@H]2CC[C@H](N)CC2)ccc2c1CC(C)(C)c1c(N)ncnc1-2 | 30 to 100 nM |
| CC1(C)Cc2c(ccc(O[C@H]3CC[C@H](N)CC3)c2SCCC#N)-c2ncnc(N)c21 | < 30 nM |

Sample `CN(CCO)c1c(O[C@H]2CC[C@H](N)CC2)ccc2c1CC1(CCCC1)c1c(N)ncnc1-2` , system: recombinant human CLK3 (Homo sapiens, UniProt P49761). Its IC50 is < 30 nM

Sample `CN(c1c(O[C@H]2CC[C@H](N)CC2)ccc2c1CC(C)(C)c1c(N)ncnc1-2)S(=O)(=O)c1ccc(F)cc1` , system: recombinant human CLK3 (Homo sapiens, UniProt P49761). Its IC50 is < 30 nM
